- Test system: BCA 225
- Method description: BCA 225 synthesis, double-determinant ELISA of T47D cell lysates
- Type: cell-based, human
- Assay setup: T47D cells, 72 hr, 0.1 μg/ml TPA, 0.1 μg/ml MEZ or 0.25 μg/ml ADMB, presence or absence of 0.1 μg/ml H-7
Measurement type: BCA 225 Synthesis (ng/mg protein)
Give the value in ng/mg protein but do not write ng/mg protein after it.

Below, 3 compounds whose answers are already recorded.
Compound	Endpoint result
CCCCCCCCCCN(C)c1cc(CO)cc(NC(C)=O)c1	299
CCCCCCCCCCCCCC(=O)O[C@@H]1[C@@H](C)[C@@]2(O)[C@@H](C=C(CO)C[C@]3(O)C(=O)C(C)=C[C@@H]23)[C@H]2C(C)(C)[C@]12OC(C)=O [TPA, 12-0-tetradecanoyl-phorbol-13-acetate]	394
C=C(C)[C@@]12O[C@@]3(c4ccccc4)O[C@@H]1[C@@H]1[C@@H]4O[C@]4(CO)[C@@H](O)[C@]4(O)C(=O)C(C)=C[C@H]4[C@@]1(O3)[C@H](C)[C@H]2OC(=O)/C=C/C=C/c1ccccc1	507

Switching to the query record.
Q: Given CC1CNCCN1S(=O)(=O)c1cccc2cnccc12.Cl.Cl (stereo not shown) , state its recorded BCA 225 Synthesis.
Ans: 142
